From: ChEMBL document CHEMBL1127533

Task for the reader: assign each of the following molecules its reported ED50.
Test system: Mus musculus
PROTOCOL: Analgesic potency was evaluated as effective dose after subcutaneous administration.
Format: functional
MEASUREMENT CONTEXT: Mus musculus, sc; read-out: ED50
Numbers only, in mg/kg.

Completed entries (count: 2):
[
  {
    "MOLECULE": "C[C@@H](Oc1ccc(F)cc1)C(=O)OC1CC2CCC(C1)N2C (stereo partly drawn)",
    "SYSTEM UNDER TEST": "Mus musculus",
    "QUANTITY KIND": "ED50",
    "RESULT UNITS": "mg/kg",
    "RECORDED NUMBER": 21
  },
  {
    "MOLECULE": "CCC(Sc1ccccc1)C(=O)OC1CC2CCC(C1)N2C (single isomer, unassigned; (+))",
    "SYSTEM UNDER TEST": "Mus musculus",
    "QUANTITY KIND": "ED50",
    "RESULT UNITS": "mg/kg",
    "RECORDED NUMBER": 16
  }
]

Query molecule follows.
Lookup: API: value(readout=ED50, system=Mus musculus) for record CC(Oc1ccc(Cl)cc1)C(=O)OC1CC2CCC(C1)N2C.O=C(O)/C=C\C(=O)O (racemic)
Found: 32
